Reference source for all entries: PubChem BioAssay AID2060906

Can you tell me viability, T/C for the items I'm about to list?
# System: 485176-168-R4-J1-PDC complex spheroid growth;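 also: spheroids exposed to compounds for seven days before readout; luminescence viability expressed relative to DMSO vehicle wells set as 100%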
# experimentDescription: Anticancer human tumor 485176-168-R4-J1-PDC patient-derived pancreatic adenocarcinoma cell line growth inhibition [RAS]
# reportedConditions: second compound 0.00316 µM; first compound 1 µM; stronger effect = lower value
Number only, in %; omit the unit.

Problem: Please report viability, T/C for the following molecule: NC1c2ccccc2OC12CCN(c1cnc3c(N4CCCc5ncccc54)n[nH]c3n1)CC2 (centres undefined) + C=CC(=O)N1CCN(c2nc(OCC3CCCN3C)nc3c(F)c(-c4nc(N)cc(C)c4C(F)(F)F)c(Cl)cc23)C(C)C1
Result: 80.1

Problem: Input CC(Nc1ccc2c(c1)OCCn1cc(N3C(=O)OCC3C(F)F)nc1-2)C(N)=O (centres undefined) + C=CC(=O)N1CCN(c2nc(OCC3CCCN3C)nc3c(F)c(-c4nc(N)cc(C)c4C(F)(F)F)c(Cl)cc23)C(C)C1 , output reported viability, T/C.
Result: 69.9

Problem: Answer with the recorded viability, T/C for the molecule listed here: CC(C)NCC(C(=O)N1CCN(c2ncnc3c2C(C)CC3O)CC1)c1ccc(Cl)cc1 (centres undefined) + C=CC(=O)N1CCN(c2nc(OCC3CCCN3C)nc3c(F)c(-c4nc(N)cc(C)c4C(F)(F)F)c(Cl)cc23)C(C)C1
Result: 57.4

Problem: Read the entry Nc1ccn(C2OC(CO)C(O)C2(F)F)c(=O)n1 (centres undefined) + C=CC(=O)N1CCN(c2nc(OCC3CCCN3C)nc3c(F)c(-c4nc(N)cc(C)c4C(F)(F)F)c(Cl)cc23)C(C)C1 and write its reported viability, T/C.
Result: 8.54

Problem: Respond only with viability, T/C recorded for CCN1CCN(Cc2ccc(Nc3ncc(F)c(-c4cc(F)c5nc(C)n(C(C)C)c5c4)n3)nc2)CC1 + C=CC(=O)N1CCN(c2nc(OCC3CCCN3C)nc3c(F)c(-c4nc(N)cc(C)c4C(F)(F)F)c(Cl)cc23)C(C)C1
Result: 59.7

Problem: Quote viability, T/C reported for CC1(O)CCCC1n1c(=O)c(C(F)F)cc2cnc(NC3CCN(S(C)(=O)=O)CC3)nc21 (centres undefined) + C=CC(=O)N1CCN(c2nc(OCC3CCCN3C)nc3c(F)c(-c4nc(N)cc(C)c4C(F)(F)F)c(Cl)cc23)C(C)C1 please.
Result: 60.3

Problem: Determine from records and report viability, T/C for C[C@@H](NC(=O)c1ncnc(N)c1Cl)c1ncc(C(=O)Nc2cc(C(F)(F)F)c(Cl)cn2)s1 + C=CC(=O)N1CCN(c2nc(OCC3CCCN3C)nc3c(F)c(-c4nc(N)cc(C)c4C(F)(F)F)c(Cl)cc23)C(C)C1
Result: 86.2

Problem: Let me know recorded viability, T/C for CC(=O)OC12COC1CC(O)C1(C)C(=O)C(O)C3=C(C)C(OC(=O)C(O)C(NC(=O)OC(C)(C)C)c4ccccc4)CC(O)(C(OC(=O)c4ccccc4)C21)C3(C)C (centres undefined) + C=CC(=O)N1CCN(c2nc(OCC3CCCN3C)nc3c(F)c(-c4nc(N)cc(C)c4C(F)(F)F)c(Cl)cc23)C(C)C1 , thanks.
Result: 11.3

Problem: Answer with reported viability, T/C of C=CC(=O)Nc1cc(Nc2nccc(-c3cn(C)c4ccccc34)n2)c(OC)cc1N(C)CCN(C)C + C=CC(=O)N1CCN(c2nc(OCC3CCCN3C)nc3c(F)c(-c4nc(N)cc(C)c4C(F)(F)F)c(Cl)cc23)C(C)C1
Result: 75.6
